Recorded values, source ChEMBL document CHEMBL1125448.

Please respond with reported log10(Ki) for every item in the list.
molecular target: D(2) dopamine receptor (Rattus norvegicus, UniProt P61169); assay: Affinity towards dopamine receptor D2 site was determined by competition studies using [3H]sulpiride in rat striatum.; assay type: tissue-based
Sequence (P61169 whole entry): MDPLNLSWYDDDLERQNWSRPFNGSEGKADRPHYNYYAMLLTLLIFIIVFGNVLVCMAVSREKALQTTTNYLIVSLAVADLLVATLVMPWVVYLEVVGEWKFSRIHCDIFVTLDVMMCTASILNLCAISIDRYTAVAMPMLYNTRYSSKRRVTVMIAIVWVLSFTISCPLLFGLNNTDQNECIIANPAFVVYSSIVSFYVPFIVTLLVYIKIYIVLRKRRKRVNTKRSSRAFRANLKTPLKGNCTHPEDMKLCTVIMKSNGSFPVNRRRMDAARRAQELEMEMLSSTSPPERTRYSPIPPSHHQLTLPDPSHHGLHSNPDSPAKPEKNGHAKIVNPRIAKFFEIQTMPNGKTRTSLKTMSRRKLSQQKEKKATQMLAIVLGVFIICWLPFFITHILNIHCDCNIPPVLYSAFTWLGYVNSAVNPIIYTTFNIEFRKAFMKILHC
Heads up: the numbers are on a log10 scale; they represent Ki in µM.

CN(CCCCCCOc1ccc2oc(-c3ccccc3)cc(=O)c2c1)Cc1ccccc1    0.26

Hi, could you look up log10(Ki) for each item in my list?
1. O=c1cc(-c2ccccc2)oc2ccc(OCCCCCCN3CCN(CCO)CC3)cc12
2. O=c1cc(-c2ccccc2)oc2ccc(OCCCCCCN3CCN(c4ccc(Cl)cc4)CC3)cc12
3. O=c1cc(-c2ccc(Cl)cc2)oc2ccc(OCCCCCCN3CCC(O)CC3)cc12
4. O=C1NCN(c2ccccc2)C12CCN(CCCCCCOc1ccc3oc(-c4ccccc4)cc(=O)c3c1)CC2
5. O=c1cc(-c2ccccc2)oc2cccc(OCCCCCN3CCC(O)CC3)c12
6. CCOC(=O)C1CCCN(CCCCCCOc2ccc3oc(-c4ccccc4)cc(=O)c3c2)C1 (stereo not given)
7. COc1ccc(-c2cc(=O)c3cc(OCCCCCCN4CCC(O)CC4)ccc3o2)cc1
8. O=c1cc(-c2ccccc2)oc2ccc(OCCCCCCN3CCC(O)(c4ccc(Cl)cc4)CC3)cc12

1. 0.92
2. 0.11
3. 1.04
4. -0.74
5. 0.71
6. -0.15
7. 0.57
8. 0.00

Entry O=c1cc(-c2ccccc2)oc2ccc(OCCCCCCN3CCOCC3)cc12 , tested on D(2) dopamine receptor (Rattus norvegicus, UniProt P61169), has a reported log10(Ki) of 1.26

---

molecular target: D(2) dopamine receptor (Rattus norvegicus); assay: Affinity towards dopamine receptor D2 site was determined by competition studies using [3H]sulpiride in rat striatum.; type: tissue-based
Quantity kind: pKi
Numbers only, as −log10 of the molar value.

O=c1cc(-c2ccccc2)oc2ccc(OCCCCCCN3CC=C(c4ccc(Cl)cc4)CC3)cc12    5.89
Cc1c(-c2ccccc2)oc2ccc(OCCC/C=C/CN3CCC(O)CC3)cc2c1=O    5.57
CN(CCO)CCCCCCOc1ccc2oc(-c3ccccc3)cc(=O)c2c1    5.35

For every listed record, write down its pKi.
1. CCN(CC)CCCCCCOc1ccc2oc(-c3ccccc3)cc(=O)c2c1
2. O=c1cc(-c2cccc(F)c2)oc2ccc(OCCCCCCN3CCC(O)CC3)cc12
3. NCCCCCCOc1ccc2oc(-c3ccccc3)cc(=O)c2c1
4. O=c1cc(C2CCCC2)oc2ccc(OCCCCCCN3CCC(O)CC3)cc12

[5.44, 4.96, 5.09, 4.68]
